- System: HCV reporter replicon
- PROCEDURE SUMMARY: HCV reporter replicon assay, antiviral activity (dual luciferase)
- Format: cell-based
- TEST SETTINGS: 7-pt Assay
The following compounds are listed with their measured CC50/EC50 values.
Response field accepts a number only; no unit should be typed.

Previously resolved entries follow.
COMPOUND | NUMERIC RESULT
CC(C)(C)OC(=O)N1CCN(S(=O)(=O)c2ccc(Oc3ccccn3)cc2)[C@@H](C(=O)NO)C1 [Example 10] | 1937
Cc1cc(CSC(C)(C)[C@@H](NS(=O)(=O)c2ccc(Oc3ccc(Br)cc3)cc2)C(=O)NO)no1 [Example 14] | 49
O=C(NO)[C@H]1CCCC[C@@H]1SCCc1ccc(-c2ccccc2)cc1 (relative stereo) [Example 6] | 3265
COC(=O)c1ccc(NC(=O)[C@H](CC(C)C)NC(=O)[C@@H](CC(=O)NO)c2ccccc2)cc1 [Example 8] | 218
O=C(NO)[C@@H]1CCCC[C@H]1S(=O)(=O)CCc1ccccc1 [Example 5] | 1333
CC(=O)N1CCN(S(=O)(=O)c2ccc(Oc3ccccc3)cc2)C(C(=O)NO)C1 (centres unmarked) [Example 9] | 835

Input O=C(NO)[C@@H]1CCCC[C@@H]1SCCc1ccccc1 [Example 3] , output reported CC50/EC50. 130

Input O=C(NO)C1CCCCN1S(=O)(=O)c1ccc(Sc2ccncc2)cc1 (centres unmarked) [Example 13] , output reported CC50/EC50. 667
